# test name: Dose escalation study, single/multiple dose and loading dose regimens: pharmacokinetics
# Assay type: in vivo, human
# conditions: human, in vivo; Period 1 Day 1, single dose 1100 mg
measured metric: AUC(0-inf) (µg·h/mL)
Numbers only, in µg·h/mL.

Which AUC(0-inf) reading was recorded for the compound CC(=O)O[C@H]1C[C@@]2(C)[C@@H](C[C@@H](O)[C@H]3[C@@]4(C)CC[C@@H](O)[C@@H](C)[C@@H]4CC[C@@]32C)/C1=C(\CCC=C(C)C)C(=O)O [CEM-102, Sodium fusidate] ?
1100

* * *

# test name: Dose escalation study, single/multiple dose and loading dose regimens: pharmacokinetics
# Type: in vivo, human
# conditions: human, in vivo, 1100 mg BID loading dose then 550 mg BID; after 7 days of dosing; read-out: mean trough plasma concentration
measured metric: concentration at 7 days

Which concentration at 7 days value belongs to CC(=O)O[C@H]1C[C@@]2(C)[C@@H](C[C@@H](O)[C@H]3[C@@]4(C)CC[C@@H](O)[C@@H](C)[C@@H]4CC[C@@]32C)/C1=C(\CCC=C(C)C)C(=O)O [CEM-102, Sodium fusidate] ?
~105 µg/mL
